system: OVCAR-8; assay: NCI tumour cell line growth inhibition, 48 h
Active and inactive are the calls of the source. Rule as the data show it: active = GI50 up to about 1.1 µM and inactive = higher.
observation type: GI50

As a guide, the following entries are already answered.
* O=S(=O)(O)c1cc(Nc2ccnc3ccccc23)c2c(S(=O)(=O)O)cc(S(=O)(=O)O)cc2c1 | > 100 µM (inactive)
* N=C(N)N/N=C/c1oc(-c2ccc(S(=O)(=O)O)o2)c(-c2ccc(S(=O)(=O)O)o2)c1[N+](=O)[O-] | > 100 µM (inactive)
* C=CCC1(CN(C)C)CC/C(=C\c2ccc(OC)cc2)C1=O (centres undefined) | 69.8 µM (inactive)
* CN(C)/C=N/c1cc(=O)n(C)c(=O)n1C | > 100 µM (inactive)
* COc1ccc(/C=C/[N+](=O)[O-])cc1 | 2.67 µM (inactive)

Record "COc1cc2ccnc(C#N)c2cc1OCc1ccccc1" . Reported GI50: > 100 µM (inactive)

Record "O=S1(=O)[C@H](c2ccccc2)c2c(-c3ccccc3)sc(-c3ccccc3)c2[C@@H]1c1ccccc1" . Reported GI50: > 100 µM (inactive)

Record c1ccc(CN2CCC(CNc3ncnc4ccccc34)C2)cc1 (centres undefined) . Reported GI50: 83 µM (inactive)

Record "Cc1cccc(CNNC(=O)c2cc[n+]([BH2-]C#N)cc2)c1" . Reported GI50: 24.6 µM (inactive)

Record "C/C=C1\NC(=O)[C@H](Cc2ccccc2)NC(=O)[C@@H](C(C)C)NC(=O)[C@@H]([C@@H](C)CC)NC(=O)[C@H](NC(=O)[C@H](NC(=O)[C@H](CCCN)NC(=O)[C@H]2CCCN2C(=O)[C@H](NC(=O)[C@@H](NC(=O)[C@@H](NC(=O)[C@H](NC(=O)CCCC(C)C)C(C)C)[C@@H](C)O)C(C)C)C(C)C)[C@@H](C)CC)[C@@H](C)OC(=O)[C@H](C(C)C)NC1=O" . Reported GI50: 4.63 µM (inactive)

====

GI50 for assorted compounds
test system: HT-29; test: NCI tumour cell line growth inhibition, 48 h
Activity calls are given as the source filed them. Cut-off read from the data, not from the text of the source: active = GI50 up to about 1.1 µM and inactive = higher.

As a guide, the following entries are already answered.
* CCC(=O)CCC1=Nc2nnc(CCCCc3nnc4n3C(=O)C(CCC(=O)CC)=N4)n2C1=O | > 100 µM (inactive)
* COc1nc(N)c(NC2OC(CO)C(O)C2O)c(=O)[nH]1 (configuration not stated) | > 100 µM (inactive)
* CCOC(=O)C(=O)Nc1c(C)cccc1C(C)(C)C | > 100 µM (inactive)

Record C=CCC1(CN(C)C)CC/C(=C\c2ccc(OC)cc2)C1=O (configuration not stated) . Reported GI50: 36.6 µM (inactive)

====

tested on: SR; test: NCI tumour cell line growth inhibition, 48 h
Active and inactive are the calls of the source. No stated cut-off is given here; in the data, active = GI50 up to about 1.1 µM and inactive = higher.
Parameter call: string, one of active, inactive

• O=C1C=C(N2CCCC2)C=C(N2CCCC2)C1 = inactive
• C=CCC1C(=O)C(C(=O)OC)N2CCc3c([nH]c4ccccc34)C12 (centres undefined) = inactive
• C[N+](C)(C)Cc1c(CC#N)[nH]c2ccccc12 = inactive
• O=C1CCCC2=C1CC1=C(CCCC1=O)N2c1ccc(Cl)cc1 = inactive
• O=C(CC/C(CC(=O)c1ccc(Cl)cc1)=N/O)Nc1ccc(Cl)c(Cl)c1 = inactive
• CCOC(=O)C12C(=O)CCN1CCc1ccccc1C2C (centres undefined) = inactive
• COc1ccccc1C1c2cc3c(cc2OC(N2CCCC2)C1C)OCO3 (centres undefined) = inactive
• Cc1cc2c(c(/C=N/Cc3ccccc3)c1)OC1(C=C2)Oc2ccccc2C(=O)N1C (centres undefined) = inactive

// query Field: outcome | Entry: "C/C(CC(=O)N(C(C)C)C(C)C)=N\NC(=O)c1ccncc1"
// result inactive

// query Field: outcome | Entry: CCOC(=O)c1ccc(N[C@@H]2c3cc4c(cc3C(C3=CC(=O)C(=O)C(OC)=C3)[C@H]3C(=O)OCC32)OCO4)cc1 (some centres undefined)
// result active

// query Field: outcome | Entry: CO[C@H]1ON=C(c2c(C)cc(C)cc2C)[C@@H]1C1(c2ccccc2)ON=C(c2c(C)cc(C)cc2C)O1 (some centres undefined)
// result inactive
